- ASSAY_REMARKS: in vitro
- MEASUREMENT_PARAMETERS: African green monkey, uninfected quiescent Vero-B cells
Some molecules, each annotated with its measured CC50 at 4 days.

- MOLECULE: "COc1cccc(NC(C(=O)c2c[nH]c3ccccc23)c2ccc(OC)nc2)c1 (stereo not shown)"
  UNIT_ABBREVIATION: "µM"
  CC50 at 4 days: 50
- MOLECULE: "O=C(c1c[nH]c2ccccc12)C(Nc1cccc(O)c1)c1ccccc1 (stereo not shown)"
  UNIT_ABBREVIATION: "µM"
  CC50 at 4 days: 78
- MOLECULE: "COc1cc(NC(C(=O)c2c[nH]c3ccc(CCO)cc23)c2ccccc2)cc(OC)c1 (stereo not shown)"
  UNIT_ABBREVIATION: "µM"
  CC50 at 4 days: 66
- MOLECULE: "COc1cccc(NC(C(=O)c2c[nH]c3ccccc23)c2cncc(F)c2)c1 (stereo not shown)"
  UNIT_ABBREVIATION: "µM"
  CC50 at 4 days: 33
- MOLECULE: "COc1cccc(NC(C(=O)c2c[nH]c3ccccc23)c2ccc(CO)cc2)c1 (stereo not shown)"
  UNIT_ABBREVIATION: "µM"
  CC50 at 4 days: 72
- MOLECULE: "COc1cc(NC(C(=O)c2c[nH]c3ccccc23)c2ccccc2)cc(OC)n1 (stereo not shown)"
  UNIT_ABBREVIATION: "µM"
  CC50 at 4 days: 20
- MOLECULE: "COc1cccc(NC(C(=O)c2c[nH]c3ccc(CO)cc23)c2ccccc2)c1 (stereo not shown)"
  UNIT_ABBREVIATION: "µM"
  CC50 at 4 days: 86
- MOLECULE: "COc1cccc(NC(C(=O)c2c[nH]c3ccccc23)c2cc(C)no2)c1 (stereo not shown)"
  UNIT_ABBREVIATION: "µM"
  CC50 at 4 days: 65
- MOLECULE: "COc1cccc(NC(C(=O)c2c[nH]c3ccccc23)c2cccc3cnccc23)c1 (stereo not shown)"
  UNIT_ABBREVIATION: "µM"
  CC50 at 4 days: 16
- MOLECULE: "COc1cc(NC(C(=O)c2c[nH]c3ccccc23)c2cscn2)ccn1 (stereo not shown)"
  UNIT_ABBREVIATION: "µM"
  CC50 at 4 days: 109
- MOLECULE: "COc1cccc(NC(C(=O)c2c[nH]c3ncccc23)c2ccccc2)c1 (stereo not shown)"
  UNIT_ABBREVIATION: "µM"
  CC50 at 4 days: 61
- MOLECULE: "COc1cc(NC(C(=O)c2c[nH]c3cc(Cl)ccc23)c2ccccc2)ccn1 (stereo not shown)"
  UNIT_ABBREVIATION: "µM"
  CC50 at 4 days: 76
- MOLECULE: "CCOc1ccc(C(Nc2cccc(OC)c2)C(=O)c2c[nH]c3ccccc23)cn1 (stereo not shown)"
  UNIT_ABBREVIATION: "µM"
  CC50 at 4 days: 15
